B1: HDV Ribozyme (parent)
chain: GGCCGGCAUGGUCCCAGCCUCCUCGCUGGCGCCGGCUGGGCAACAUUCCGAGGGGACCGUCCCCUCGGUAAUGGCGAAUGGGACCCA

variants of: B1; experiment: self-cleavage, relative activity (ratio to wild type); higher = more cleavage; co-transcriptional
Classification field: rule met = self-cleavage at or over 0.3; rule not met = self-cleavage under 0.3.

The examples below pair each entry with its known result.
Mutation Id	Discrete Label
G10U A56G	rule met
C61U C63G	rule not met
U9C C48G	rule met
G1A G10C	rule met
G28U G38A	rule not met

Decide: is the reported value of self-cleavage for A78U C86A equal to or greater than 0.3?
rule not met

Decide: is the reported value of self-cleavage for C44G G73A equal to or greater than 0.3?
rule met
